- assay.protocol: qHTS assay to identify small molecule antagonists of the glucocorticoid receptor (GR) signaling pathway - cell viability counter screen (AID 720693); also: nearly all actives have a fitted effect of over 55% in size
- assay.setup: GR-bla HeLa viability, CellTiter-Glo luminescence, 18 h, with 5 nM dexamethasone present; series mostly up to 58.5 µM
Results filed as inconclusive are left out. The source made the active and inactive calls. Calls follow the shape of the dose curve; as a rule, active = well fitted cell-killing curve with a large enough effect in the repeat runs; inconclusive = weak or mixed curves, or effect the other way; inactive = no such curve, though single readings can be large or run the other way.
Assign a class; possible classes are T = active, F = inactive

Solved cases (10 shown):
- molecule: "O=C(CBr)c1ccc(O)cc1"
  label.value: "F"
- molecule: "CC1(C)C(/C=C(\\Cl)C(F)(F)F)C1C(=O)OC(C#N)c1cccc(Oc2ccccc2)c1 (stereo not given)"
  label.value: "F"
- molecule: "C=CCC1=C(C)C(OC(=O)C2C(C=C(C)C)C2(C)C)CC1=O (stereo not given)"
  label.value: "T"
- molecule: "O=C(O)COc1nc(Cl)c(Cl)cc1Cl"
  label.value: "F"
- molecule: "CCN"
  label.value: "F"
- molecule: "O=[N+]([O-])c1cc([N+](=O)[O-])c2ccccc2c1"
  label.value: "F"
- molecule: "N#CC(Cl)Cl"
  label.value: "F"
- molecule: "CC[C@H]1C[C@@H]2C[C@H]3c4[nH]c5ccc(OC)cc5c4CCN(C2)[C@@H]13"
  label.value: "F"
- molecule: "CCCN(CCC)CCc1c[nH]c2ccccc12"
  label.value: "F"
- molecule: "S=C=Nc1cccc2ccccc12"
  label.value: "F"

*Q* Entry ClC1=C(Cl)C2(Cl)C3C(Cl)C=CC3C1(Cl)C2(Cl)Cl (stereo not given) : call = ?
*A* F

*Q* Entry CCC(C)c1cc([N+](=O)[O-])cc([N+](=O)[O-])c1OC(=O)C=C(C)C (stereo not given) : call = ?
*A* F

*Q* Entry `Clc1ccc(-c2ccc(Cl)c(Cl)c2Cl)c(Cl)c1Cl` : call = ?
*A* F

*Q* Entry `CN(C)C(=S)[S-].CN(C)C(=S)[S-].[Cu+2]` : call = ?
*A* T

*Q* Entry CCOC(=O)OC1=C(c2cc(C)ccc2C)C(=O)NC12CCC(OC)CC2 (stereo not given) : call = ?
*A* F

* * *

- assay.protocol: qHTS assay to test for compound auto fluorescence at 460 nm (blue) in HEK293 cell free culture (AID 720681)
- assay.setup: cell-free medium, autofluorescence 405/460 nm (blue); series mostly up to 91.3 µM
Activity calls are given as the source filed them. Calls follow the shape of the dose curve; as a rule, active = well fitted curve in the direction sought with a large enough effect in the repeat runs; inconclusive = weak or mixed curves; inactive = flat fitted curve, though single readings scatter.
assay.metric: fluorescence, % of fluorescent control

Check out these entries, answers already filled in.
- compound: "c1ccc(OCC2CO2)cc1 (configuration not stated)"
  fluorescence, % of fluorescent control: "inactive"
- compound: "O=C/C(Cl)=C(/Cl)C(=O)O"
  fluorescence, % of fluorescent control: "inactive"
- compound: "Fc1ccc(Oc2ccnc3cc(Cl)cc(Cl)c23)cc1"
  fluorescence, % of fluorescent control: "inactive"
- compound: "CCN(CC)c1c([N+](=O)[O-])cc(C(F)(F)F)c(N)c1[N+](=O)[O-]"
  fluorescence, % of fluorescent control: "inactive"
- compound: "CC(=O)[O-].CC(=O)[O-].O.O.[Cd+2]"
  fluorescence, % of fluorescent control: "inactive"
- compound: "CC(C)CC(C)Nc1ccc(Nc2ccccc2)cc1 (configuration not stated)"
  fluorescence, % of fluorescent control: "inactive"
- compound: "Oc1ccc(C(c2ccc(O)cc2)(C(F)(F)F)C(F)(F)F)cc1"
  fluorescence, % of fluorescent control: "inactive"
- compound: "N#CCCC(Br)(C#N)CBr (configuration not stated)"
  fluorescence, % of fluorescent control: "inactive"

*Q* Provide only the value of recorded fluorescence, % of fluorescent control for `O=C(Nc1ccc2[nH]ccc2c1)c1cc2cc(F)ccc2n1Cc1cccc(F)c1`
*A* inactive

*Q* Provide only the value of recorded fluorescence, % of fluorescent control for ClC1=C(Cl)C2(Cl)C3C(Cl)C=CC3C1(Cl)C2(Cl)Cl (configuration not stated)
*A* inactive

*Q* Provide only the value of recorded fluorescence, % of fluorescent control for `O=C(O)COc1nc(Cl)c(Cl)cc1Cl`
*A* inactive

*Q* Provide only the value of recorded fluorescence, % of fluorescent control for `O=[N+]([O-])c1ccc(Oc2ccc(C(F)(F)F)cc2[N+](=O)[O-])cc1`
*A* inactive
